System: MINK
Construct: gene MINK1
Details: concentration: 1 μM, replicates: in singlicate; n = 1;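 also: KINOMEscan kinase panel screen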
PROPERTY NAME: %Inh
A complete answer gives the number followed by the unit.

Examples from the recorded data:
SMILES NOTATION | TARGET SYSTEM | %Inh
Cc1cn2c(=O)cc(N3CCOCC3)nc2n1Cc1cccc(Cl)c1Cl | MINK | 0%
CN1c2ccc(CNc3ccc(F)cc3)cc2-c2c(cnn2C)S1(=O)=O | MINK | 26%

Enquiry: Output %Inh of CN(C(=O)c1ccc(-c2cc(-c3c[nH]nc3-c3ccccn3)ccn2)cc1)C1CCOCC1
Return: 8%

---

Each item that follows carries a reported %Inh.
Test system: MEK5
Construct: gene MAP2K5
Conditions: concentration: 1 μM, replicates: in singlicate; n = 1
Give the number; % is assumed, so skip it.

MOLECULE | %Inh (%)
O=C(NCCNc1ccnc(Nc2ccc(F)cc2)n1)Nc1ccccc1F | 30
O=C(c1ccc(-c2cc(-c3c[nH]nc3-c3ccccn3)ccn2)cc1)N1CCOCC1 | 42
Cc1nnc(-c2ccc3occ(-c4ccc(C(C)O)cc4)c3c2)o1 (centres unmarked) | 8
Cc1c2ccc(N(C)c3ccnc(Nc4cccc(S(N)(=O)=O)c4)n3)cc2nn1Cc1ccccc1.Cl.Cl | 98.4

Read the next record carefully.
Enquiry: Retrieve %Inh measured for CN(C(=O)c1ccc(-c2cc(-c3c[nH]nc3-c3ccccn3)ccn2)cc1)C1CCOCC1 and print it.
Return: 5

Data provenance is paper PMC5540273.
